Tested on: K4 kissing-loop RNA reporter;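 also: bound reporter read as fluorescence of individual clusters on recovered sequencing chips by microscopy, with normalized cluster intensities fitted with a binding model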
test method notes: apparent KD of K4 kissing-loop reporter; higher = weaker reporter binding
measurement parameters: Eterna round: R107; input ligand: none
label 1 means recorded apparent KD of K4 kissing-loop reporter is 0.3 µM or above; label 0 means it is below 0.3 µM.

Test whether the sequence ACGCUAGCUACCGAAAGGUAGCUAGCGAGUGAGGAUAUGUGGAAACACAGAAGGCACAGCGCAGUGAUGUUGUGCGGCGGAAGCG [whbob_SS_FMNA__2th168] records apparent KD of K4 kissing-loop reporter of 0.3 µM or higher.
label 1

Textbook exercise: given the entry UGAUAGGACAGAAGGAGCGGGAGUGAUGUUCCCAAAAUGGAAGGUCGACAAAGUCGACCCUCCCAGGUAGGUCGCUGUCCUAUCU [ArgBX 6 #SwitchBubble #StaticStem] , state whether its apparent KD of K4 kissing-loop reporter is greater than or equal to 0.3 µM.
label 0

Confirm if apparent KD of K4 kissing-loop reporter reported for the sequence AGUGCCGAGUGUGAUACCAGCUUCAUGCAGUGAUGUUGCACACGAGUGAUGUUCGUCCGAGGCCCUUGGCAGCGCAGUCGCUCGA [Same State Theophylline B Gf 30] is 0.3 µM or above.
label 1

Textbook exercise: given the entry GGGAGGAUUAAAUAAAUAAAUAAGAUAGAUACCAGUUGAGAGUAAGGCCCUUGGCAGCUAAAACGAGUGAUGUUCGAGUAAAUCC [Default title] , state whether its apparent KD of K4 kissing-loop reporter is greater than or equal to 0.3 µM.
label 0

Is the recorded value of apparent KD of K4 kissing-loop reporter equal to or greater than 0.3 µM for this sequence? GACUGGAGUGAUGUUCCAUUAACGAUCCUACGAGGACCGGUACGGCCGCCACUCGAAAUGCAGUGAUGUUGCAGCCAGCCGUACU [Exclusion Trptophan A GF 8]
label 0

Say whether CGAGUCCUGAGGAGUGAUGUUCCUCGGCCACGAGGACCGGUACGGCCGCCACUCGUUACUCGAGCUUAGUAGCUAGCACUAAGCC [Zaussora] shows apparent KD of K4 kissing-loop reporter of 0.3 µM or more.
label 0

Quick check: does AAUAAAAUCACGGCCGCCACUGAUUACCAUAUUAGGAGUGAUGUUCCUAUGACUAUAUAAUUUAACAGGACCGGGUGAAUAUUUA [JR_ExcTryptoB_Sub011] have apparent KD of K4 kissing-loop reporter greater than or equal to 0.3 µM?
label 0

Evaluate UUUUUAUGCAGUGAUGUUGCUAAUAUAACAGAGGAUAUGCAUUAAUGCAGAAGGCUGAAAUACUAUACUUUAAUAUAUUAAAUUU [JR_SSFMNA_Sub015] : apparent KD of K4 kissing-loop reporter at minimum 0.3 µM?
label 0

Does the reported apparent KD of K4 kissing-loop reporter for UAACUGCAGUGAUGUUGCAGAUGUCCUGACUAGGAUAUCAGGAAACUGAGAAGGAGUCCCUUCUAAACAUCACAGAAGGAGGACA [[K1]-[K2]-[F1]'-[F1]-[F2]-[F2]'-[K]'-[F]''_Design2] fall at or above the 0.3 µM mark?
label 1

Determine whether this sequence has apparent KD of K4 kissing-loop reporter no lower than 0.3 µM: GAUGGUCGAGAAGGAUAUGUGACUACCAGAAGGAAAUUCAGUGAUGUUGAUUGUCGCGAGCAGGAGACAGAAGGUCUCAGACAUA [theeternabot_exclusion_KL_FMN_B_5]
label 1

Textbook exercise: given the entry "UCCUACGAGGUAACGUGGAUAUCUCGUUGCAAGGAUAUCUGGAAACAGAGAAGGUGCAACAUUAUCAGCAGUGAUGUUGCUGACC" , state whether its apparent KD of K4 kissing-loop reporter is greater than or equal to 0.3 µM.
label 0

Identify whether the reported apparent KD of K4 kissing-loop reporter of the following sequence is 0.3 µM or greater: AGUGAUGUGGGAAGGAGCGGUAUAAGAAUUCAGUGAUGUUGAAGUGUUGCUGUAAUAAAGAGCCAGGUAGGUCGCCUAGAUGUUA [KL-XARG B30]
label 1

Would you say "UGGAGUUGACGAAAAGUCAACUCCAGAGAAGGAGCGGACGAAAGUCCAGGUAGGUCGCUCACUACCAGUGAUGUUGGUACUUGAA" shows apparent KD of K4 kissing-loop reporter at minimum 0.3 µM?
label 0

Confirm if apparent KD of K4 kissing-loop reporter reported for the sequence AAUACGAAGCAGUGAUGUUGCUUAUGAGAAGGAGCGCACGAAAGUGCAGGUAGGUCGCUCAGCCAAGUGGACGAAAACGUCCACA [whbob_SS_Arginine_A_sa108] is 0.3 µM or above.
label 0

Is the recorded value of apparent KD of K4 kissing-loop reporter equal to or greater than 0.3 µM for this sequence? "GCCGUAGAUUGAAGGAGCGGGCCGUAGUGAUGUUACGCCAAGUUGUCUUUUAUUGAUGUGGCCCAGGUAGGUCGCAAUCUACGGC"
label 1

Reported apparent KD of K4 kissing-loop reporter reaches at least 0.3 µM for AAUAAGGUCGCCGAUACCAGCGCAGGCAGAGCAAAGCUCUGCCUGGUAGUGAUGUUACCGCGCCCUUGGCAGCGGUGGCACGACC [Omei KL Theo B SS C v5] ?
label 0

Quick check: does CCUUCCGACACGGCCGCCACUAAUUUCAUCAGAUUGCCCGGAUUUCCAAGAUAGUGAUGUUGUACUAGGACCGGGUGUCAGGUCG [theeternabot_exclusion_KL_Trp_B_16] have apparent KD of K4 kissing-loop reporter greater than or equal to 0.3 µM?
label 1

Say whether UACUUAUAUAUCAACUUAAAUUAUUCAGAAGGAGCGUGAUCAUUCACAGGUAGGUCGCUGAACUAGUGAUGUUAGUUUUAAUUUU [JR_Nu_ExcArginiA_Sub023] shows apparent KD of K4 kissing-loop reporter of 0.3 µM or more.
label 0

Hi team, for CUGGGUUGACGAAAAGUCAACAAAUGAGAAGGAGCGCACGAAAGUGCAGGUAGGUCGCUCAAUCCAGUGAUGUUGGAUCAUCCAG [#SwitchBubble 12 #K4Late] , is the recorded apparent KD of K4 kissing-loop reporter at or above 0.3 µM?
label 1

Exam item: decide whether the reported apparent KD of K4 kissing-loop reporter for UUUAAAUAUAGUGAUGUUAUAUAACAAUGACGAGGACCGGUACGGCCGCCACUCGAGAGAGAUAAUGGUCUUACAAAUGUAAGUU [AstrosSSTryA#9] is at least 0.3 µM.
label 1

Record AUAUUUAUUUAGUCACUUUUCAUAUUAUGUCAGGAUAUCGUAUUUUCGAGAAGGGACUCAUGGUAGUGAUGUUACCUAUUUCUCA [#03 K4 FMN A Exclusion] ; criterion: apparent KD of K4 kissing-loop reporter no lower than 0.3 µM. Met?
label 1
